PROCEDURE TEXT: NCI Yeast Anticancer Drug Screen. Data for the mec2-1 strain (AID 157)
TEST CONTEXT: S. cerevisiae mec2-1 strain, at 5.0 µM (retest, dose inferred, filed as 0.5), hits give high values
The panel holds about 79,000 compounds, 15% with a hit somewhere; the sample as a whole holds those more often.
ASSAY READOUT: growth inhibition (%)
Give just the numeric value; % need not be written.

Below, 2 compounds whose answers are already recorded.
[
  {
    "COMPOUND": "CC(=O)NC1CCCCC1CC1CCCCC1 (configuration not stated)",
    "OBS VALUE": -48
  },
  {
    "COMPOUND": "CC1=NN(c2nc(N)nc(NS(=O)(=O)c3cc(C)c(Cl)cc3S)n2)C(C)(C)C1",
    "OBS VALUE": -1
  }
]

Short answer for C/C(=C/C(=O)N1c2ccccc2CC1c1c[nH]c2ccccc12)C(=O)O (configuration not stated) : growth inhibition was -8

Short answer for CCc1cccc(C)c1NC(=O)C(=O)C(C#N)c1ccc(C)cc1 (configuration not stated) : growth inhibition was 0

Short answer for `ClCc1c(-c2ccccc2)oc(-c2ccccc2)c1CCl` : growth inhibition was 1

Short answer for COc1ccc2c(c1)CCC1C2CCC2(C)C(=O)C(SC3=NC=NC4=NC=NC43)CC12 (configuration not stated) : growth inhibition was 25
